system under test: M-phase inducer phosphatase 1 (Homo sapiens)
Sequence (P30304 whole entry): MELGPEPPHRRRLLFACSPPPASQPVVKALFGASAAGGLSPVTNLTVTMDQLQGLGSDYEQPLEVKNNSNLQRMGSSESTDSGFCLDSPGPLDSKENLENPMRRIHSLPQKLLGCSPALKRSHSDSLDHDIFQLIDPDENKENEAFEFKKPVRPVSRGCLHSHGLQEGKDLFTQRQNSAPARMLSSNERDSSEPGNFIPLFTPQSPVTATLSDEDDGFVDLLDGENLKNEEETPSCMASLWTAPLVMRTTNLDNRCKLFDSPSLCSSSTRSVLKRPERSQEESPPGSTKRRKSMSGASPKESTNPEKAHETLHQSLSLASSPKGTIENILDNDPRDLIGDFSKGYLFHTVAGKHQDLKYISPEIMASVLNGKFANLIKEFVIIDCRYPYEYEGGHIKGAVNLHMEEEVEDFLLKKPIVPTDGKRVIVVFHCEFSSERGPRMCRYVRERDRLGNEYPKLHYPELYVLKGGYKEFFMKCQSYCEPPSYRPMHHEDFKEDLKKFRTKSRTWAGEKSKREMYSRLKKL
method summary: Inhibition of CDC25A (unknown origin) using fluorescein diphosphate as substrate
property name: IC50 (µM)
Value expressed in µM; do not type the unit.

Q: Name the recorded IC50 for CCCc1cc(O)nc(SCC(=O)NCCSCc2ccco2)n1 .
A: 7.9
